Assign pEC50 to each entry below.
Target: Melanocortin receptor 3 (Homo sapiens, UniProt P41968)
Sequence (P41968 whole entry): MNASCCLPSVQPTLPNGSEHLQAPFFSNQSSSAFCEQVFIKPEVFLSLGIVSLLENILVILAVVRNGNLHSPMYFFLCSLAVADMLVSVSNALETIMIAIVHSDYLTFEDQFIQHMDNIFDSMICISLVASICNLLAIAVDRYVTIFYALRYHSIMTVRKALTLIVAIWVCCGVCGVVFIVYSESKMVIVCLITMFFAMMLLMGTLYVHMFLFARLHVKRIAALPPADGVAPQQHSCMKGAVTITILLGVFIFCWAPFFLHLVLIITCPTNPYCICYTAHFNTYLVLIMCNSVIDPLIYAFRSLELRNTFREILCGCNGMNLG
Assay: In vitro agonist potency was evaluated in HEK293 cells transfected with human melanocortin receptor (hMC3R)
A value of pEC50 is the negative decimal logarithm of a concentration given in moles per litre.

State the recorded pEC50 for this entry: `CCCC(=O)N[C@@H](Cc1cnc[nH]1)C(=O)N[C@@H](Cc1ccccc1)C(=O)N[C@@H](CCCNC(=N)N)C(=O)N[C@@H](Cc1c[nH]c2ccccc12)C(N)=O`
7.03

What about this compound? `N=C(N)NCCC[C@H](NC(=O)[C@H](Cc1ccccc1)NC(=O)[C@H](Cc1cnc[nH]1)NC(=O)CCCO)C(=O)N[C@@H](Cc1c[nH]c2ccccc12)C(N)=O`
6.19

What about this compound? `N#CCC(=O)N[C@@H](Cc1c[nH]cn1)C(=O)N[C@@H](Cc1ccccc1)C(=O)N[C@@H](CCCNC(=N)N)C(=O)N[C@@H](Cc1c[nH]c2ccccc12)C(N)=O`
6.80

What about this compound? `N=C(N)NCCC[C@H](NC(=O)[C@H](Cc1ccccc1)NC(=O)[C@H](Cc1c[nH]cn1)NC(=O)Cc1ccccc1)C(=O)N[C@@H](Cc1c[nH]c2ccccc12)C(N)=O`
7.55

What about this compound? `CCCCC(=O)N[C@@H](Cc1cnc[nH]1)C(=O)N[C@@H](Cc1ccccc1)C(=O)N[C@@H](CCCNC(=N)N)C(=O)N[C@@H](Cc1c[nH]c2ccccc12)C(N)=O`
7.35

What about this compound? `CC(C)C(=O)N[C@@H](Cc1cnc[nH]1)C(=O)N[C@@H](Cc1ccccc1)C(=O)N[C@@H](CCCNC(=N)N)C(=O)N[C@@H](Cc1c[nH]c2ccccc12)C(N)=O`
6.89

###

Assign EC50 to each entry below.
Biological target: Melanocortin receptor 3 (Homo sapiens)
Assay: In vitro agonist potency was evaluated in HEK293 cells transfected with human melanocortin receptor (hMC3R)
Give just the number in nM; leave the unit off.

State the recorded EC50 for this entry: `N=C(N)NCCC[C@H](NC(=O)[C@H](Cc1ccccc1)NC(=O)[C@H](Cc1c[nH]cn1)NC(=O)CC(F)(F)F)C(=O)N[C@@H](Cc1c[nH]c2ccccc12)C(N)=O`
120

What about this compound? `N=C(N)NCCC[C@H](NC(=O)[C@H](Cc1ccccc1)NC(=O)[C@H](Cc1c[nH]cn1)NC(=O)CO)C(=O)N[C@@H](Cc1c[nH]c2ccccc12)C(N)=O`
300

What about this compound? `N=C(N)NCCC[C@H](NC(=O)[C@H](Cc1ccccc1)NC(=O)[C@H](Cc1cnc[nH]1)NC(=O)Cc1ccc(Cl)cc1)C(=O)N[C@@H](Cc1c[nH]c2ccccc12)C(N)=O`
9.3

What about this compound? `N=C(N)NCCC[C@H](NC(=O)[C@H](Cc1ccccc1)NC(=O)[C@H](Cc1c[nH]cn1)NC(=O)c1ccccc1)C(=O)N[C@@H](Cc1c[nH]c2ccccc12)C(N)=O`
98.3

What about this compound? `N=C(N)NCCC[C@H](NC(=O)[C@H](Cc1ccccc1)NC(=O)[C@H](Cc1c[nH]cn1)NC(=O)CCc1ccccc1)C(=O)N[C@@H](Cc1c[nH]c2ccccc12)C(N)=O`
17

What about this compound? `CC(=O)N[C@@H](Cc1c[nH]cn1)C(=O)N[C@@H](Cc1ccccc1)C(=O)N[C@@H](CCCN=C(N)N)C(=O)N[C@@H](Cc1c[nH]c2ccccc12)C(N)=O`
170
